test system: Mus musculus; experiment: Toxicity in Mus musculus (mouse) transplanted with mouse EAC cells assessed as effect on monocytes level at 75 mg/kg, ip measured on day 13 post tumor implantation (reference value: 1.4 +/- 0.24%); assay type: organism-based, Ehrlich; parameters: dose 75 mg/kg, route intraperitoneal; details: in vivo
So basically, if Activity comes in under 4% it's label 1, and if it's 4% or more it's label 0.

Strictly below 4% in Activity? `COc1ccccc1N1CCN(CC(=O)Nc2nc(-c3c(O)cc(C)oc3=O)cs2)CC1`
label 0

Strictly below 4% in Activity? `Cc1cc(O)c(-c2csc(NC(=O)CN3CCN(c4ccc(F)cc4)CC3)n2)c(=O)o1`
label 1

Strictly below 4% in Activity? Cc1cc(O)c(-c2csc(N3C(=O)CSC3c3ccc(O)cc3)n2)c(=O)o1 (stereo not drawn)
label 0

Strictly below 4% in Activity? Cc1cc(O)c(-c2csc(N3C(=O)CSC3c3ccc(Cl)cc3)n2)c(=O)o1 (stereo not drawn)
label 1

Strictly below 4% in Activity? `Cc1cc(O)c(-c2csc(NC(=O)CN3CCN(C)CC3)n2)c(=O)o1`
label 1

Strictly below 4% in Activity? `Cc1cc(O)c(-c2csc(NC(=O)CN3CCN(C(=O)c4ccco4)CC3)n2)c(=O)o1`
label 0

Strictly below 4% in Activity? COc1cc(C2SCC(=O)N2c2nc(-c3c(O)cc(C)oc3=O)cs2)cc(OC)c1OC (stereo not drawn)
label 1
